This collection of values is drawn from patent US20260174875A1.

# Target entity: T1, human amylin-3(a) receptor (human, UniProt P30988 25-474; O60896 24-148)
# T1 sequence (looked up) 1: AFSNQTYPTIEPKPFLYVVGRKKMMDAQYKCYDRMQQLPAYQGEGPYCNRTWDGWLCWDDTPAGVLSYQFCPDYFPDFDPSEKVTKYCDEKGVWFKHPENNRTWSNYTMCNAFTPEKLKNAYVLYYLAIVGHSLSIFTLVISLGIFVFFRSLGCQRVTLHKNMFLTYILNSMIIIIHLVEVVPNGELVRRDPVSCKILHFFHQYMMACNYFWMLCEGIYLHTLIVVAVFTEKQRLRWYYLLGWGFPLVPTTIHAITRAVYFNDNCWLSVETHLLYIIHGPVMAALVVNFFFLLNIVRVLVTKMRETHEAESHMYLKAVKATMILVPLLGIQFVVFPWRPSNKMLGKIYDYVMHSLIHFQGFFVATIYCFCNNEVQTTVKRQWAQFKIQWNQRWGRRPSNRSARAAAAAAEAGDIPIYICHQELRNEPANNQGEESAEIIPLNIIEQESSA
# T1 sequence (looked up) 2: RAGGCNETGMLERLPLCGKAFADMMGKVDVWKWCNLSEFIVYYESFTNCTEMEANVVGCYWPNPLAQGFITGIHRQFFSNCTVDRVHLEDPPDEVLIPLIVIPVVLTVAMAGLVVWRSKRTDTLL
# Method: cell-based or functional assay
Numbered stars: 1 amine (or outer) side, 2 acyl side, 3 side chain; on linkers, the order of the positions; unused ones are H or OH. Square brackets hold non-standard residues; d marks the D form. Side chains are listed from the residue outwards. * marks the point of attachment. C18 diacid = O=C(O)CCCCCCCCCCCCCCCCC(=O)*; C16 diacid = O=C(O)CCCCCCCCCCCCCCC(=O)*; γGlu = O=C(O)[C@H](CCC(=O)[*:2])N[*:1]; Chem. 28 = not defined here; AEEA = NCCOCCOCC(=O)O; Aib = CC(C)(N)C(=O)O
The label 1 (yes) is reserved for hAMYR3 Potency, no HSA, EC50 [pM] strictly under 4 pM; 0 (no) covers values equal to or above it.

Example entries and their recorded answers appear below.
{"Binder": "Compound 79 (peptide) peptide: Y[Aib]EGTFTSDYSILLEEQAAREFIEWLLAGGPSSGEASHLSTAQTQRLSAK([AEEA-AEEA-γGlu-C18 diacid])LHRLATLPRTETGSGSP-NH2", "Class assignment": "1 (yes)"}
{"Binder": "Compound 46 (reading uncertain) peptide: H[Aib]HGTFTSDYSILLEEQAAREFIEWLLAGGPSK(Chem. 28)GAGQAPGQAPGASHLSTAALGRLSAELHRLATLPRTETGSGSP-NH2", "Class assignment": "0 (no)"}
{"Binder": "Compound 74 (peptide) peptide: Y[Aib]EGTFTSDYSILLEEQAAREFIEWLLAGGPSGGEASHLSTAQTQRLSAELHK([AEEA-AEEA-γGlu-C18 diacid])LATLPRTETGSGSP-NH2", "Class assignment": "1 (yes)"}
{"Binder": "Compound 32 (reading uncertain) peptide: Y[Aib]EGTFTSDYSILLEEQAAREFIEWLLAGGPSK(Chem. 28)GAEASELSTAALGRLSAELHELATLPRTETGSGSP-NH2", "Class assignment": "0 (no)"}
{"Binder": "Compound 33 (reading uncertain) peptide: Y[Aib]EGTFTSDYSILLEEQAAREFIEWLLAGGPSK(Chem. 28)GAPPEASELSTAALGRLSAELHELATLPRTETGSGSP-NH2", "Class assignment": "0 (no)"}
{"Binder": "Compound 73 (peptide) peptide: H[Aib]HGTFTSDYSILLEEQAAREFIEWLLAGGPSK([AEEA-AEEA-γGlu-C18 diacid])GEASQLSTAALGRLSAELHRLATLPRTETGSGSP-NH2", "Class assignment": "1 (yes)"}
{"Binder": "Compound 68 (peptide) peptide: Y[Aib]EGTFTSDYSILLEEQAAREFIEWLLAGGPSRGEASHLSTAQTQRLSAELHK([AEEA-AEEA-γGlu-C18 diacid])LATLPRTETGSGSP-NH2", "Class assignment": "1 (yes)"}
{"Binder": "Compound 21 (reading uncertain) peptide: Y[Aib]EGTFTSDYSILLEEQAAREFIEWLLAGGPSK(Chem. 28)GALAQTLAQTLASELSTAALGRLSAELHELATLPRTETGSGSP-NH2", "Class assignment": "0 (no)"}
{"Binder": "Compound 12 (peptide) peptide: H[Aib]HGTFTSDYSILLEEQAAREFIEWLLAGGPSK([AEEA-AEEA-γGlu-C16 diacid])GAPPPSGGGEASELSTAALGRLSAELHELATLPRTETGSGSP-NH2", "Class assignment": "0 (no)"}
{"Binder": "Compound 36 (reading uncertain) peptide: H[Aib]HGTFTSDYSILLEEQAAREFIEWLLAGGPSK(Chem. 28)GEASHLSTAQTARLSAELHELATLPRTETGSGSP-NH2", "Class assignment": "1 (yes)"}

INPUT: Here's an entry: Compound 57 (reading uncertain) peptide: Y[Aib]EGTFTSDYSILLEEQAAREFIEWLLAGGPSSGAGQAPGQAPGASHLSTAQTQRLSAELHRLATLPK(Chem. 28)TETGSGSP-NH2 . Is its hAMYR3 Potency, no HSA, EC50 [pM] below 4 pM?
OUTPUT: 1 (yes)

INPUT: Here's an entry: Compound 91 (peptide) peptide: H[Aib]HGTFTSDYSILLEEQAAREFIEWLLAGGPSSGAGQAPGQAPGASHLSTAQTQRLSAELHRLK([AEEA-AEEA-γGlu-C18 diacid])TLPRTETGSGSP-NH2 . Is its hAMYR3 Potency, no HSA, EC50 [pM] below 4 pM?
OUTPUT: 1 (yes)

INPUT: Here's an entry: Compound 93 (peptide) peptide: H[Aib]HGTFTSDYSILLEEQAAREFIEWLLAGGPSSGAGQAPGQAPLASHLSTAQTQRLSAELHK([AEEA-AEEA-γGlu-C18 diacid])LATLPRTETGSGSP-NH2 . Is its hAMYR3 Potency, no HSA, EC50 [pM] below 4 pM?
OUTPUT: 1 (yes)

INPUT: Here's an entry: Compound 92 (peptide) peptide: H[Aib]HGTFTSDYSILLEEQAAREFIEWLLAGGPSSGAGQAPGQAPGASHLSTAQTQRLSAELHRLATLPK([AEEA-AEEA-γGlu-C18 diacid])TETGSGSP-NH2 . Is its hAMYR3 Potency, no HSA, EC50 [pM] below 4 pM?
OUTPUT: 1 (yes)

INPUT: Here's an entry: Compound 99 (not fully specified (residue 62)) peptide: Y[Aib]EGTFTSDYSILLEEQAAREFIEWLLAGGPSSGALQAPGQAPLASHLSTAQTQRLSAELHKLATLPRTETGSGSP-NH2 . Is its hAMYR3 Potency, no HSA, EC50 [pM] below 4 pM?
OUTPUT: 1 (yes)

INPUT: Here's an entry: Compound 114 (peptide) peptide: Y[Aib]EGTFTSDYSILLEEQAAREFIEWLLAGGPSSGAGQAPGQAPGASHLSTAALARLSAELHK([AEEA-AEEA-γGlu-C18 diacid])LATLPRTETGSGSP-NH2 . Is its hAMYR3 Potency, no HSA, EC50 [pM] below 4 pM?
OUTPUT: 1 (yes)
